assay: In vivo pharmacokinetic (PK) studies in rats; design: species or system Sprague-Dawley (SD) rats; conditions: male, Sprague-Dawley, rat, plasma; 5 mg/kg, IV
READOUT_KIND: AUC(0-t) (ng·h/mL)
Answer in ng·h/mL, number only, no unit symbol.

What value of AUC(0-t) has been reported for the following compound? Cn1c(=O)ccc2ccc(F)c(OCCNC[C@H]3CN(c4cnc5c(n4)NC(=O)CO5)C(=O)O3)c21
1870

----------
experiment: In vivo pharmacokinetic (PK) studies in rats; set-up: species or system Sprague-Dawley (SD) rats; conditions: Sprague-Dawley, rat, plasma; 5 mg/kg, IV (1 h infusion), male SD rats
READOUT_KIND: Cmax

What value of Cmax has been reported for the following compound? Cn1c(=O)ccc2ccc(F)c(OCCNC[C@H]3CN(c4cnc5c(n4)NC(=O)CO5)C(=O)O3)c21 [Compound 2]
2800 ng/mL
